# TARGET_UNDER_TEST: P-gp (Homo sapiens, UniProt P08183)
# Construct: host or cells: MDCK (MDR1-MDCK)
# Sequence (P08183 whole entry): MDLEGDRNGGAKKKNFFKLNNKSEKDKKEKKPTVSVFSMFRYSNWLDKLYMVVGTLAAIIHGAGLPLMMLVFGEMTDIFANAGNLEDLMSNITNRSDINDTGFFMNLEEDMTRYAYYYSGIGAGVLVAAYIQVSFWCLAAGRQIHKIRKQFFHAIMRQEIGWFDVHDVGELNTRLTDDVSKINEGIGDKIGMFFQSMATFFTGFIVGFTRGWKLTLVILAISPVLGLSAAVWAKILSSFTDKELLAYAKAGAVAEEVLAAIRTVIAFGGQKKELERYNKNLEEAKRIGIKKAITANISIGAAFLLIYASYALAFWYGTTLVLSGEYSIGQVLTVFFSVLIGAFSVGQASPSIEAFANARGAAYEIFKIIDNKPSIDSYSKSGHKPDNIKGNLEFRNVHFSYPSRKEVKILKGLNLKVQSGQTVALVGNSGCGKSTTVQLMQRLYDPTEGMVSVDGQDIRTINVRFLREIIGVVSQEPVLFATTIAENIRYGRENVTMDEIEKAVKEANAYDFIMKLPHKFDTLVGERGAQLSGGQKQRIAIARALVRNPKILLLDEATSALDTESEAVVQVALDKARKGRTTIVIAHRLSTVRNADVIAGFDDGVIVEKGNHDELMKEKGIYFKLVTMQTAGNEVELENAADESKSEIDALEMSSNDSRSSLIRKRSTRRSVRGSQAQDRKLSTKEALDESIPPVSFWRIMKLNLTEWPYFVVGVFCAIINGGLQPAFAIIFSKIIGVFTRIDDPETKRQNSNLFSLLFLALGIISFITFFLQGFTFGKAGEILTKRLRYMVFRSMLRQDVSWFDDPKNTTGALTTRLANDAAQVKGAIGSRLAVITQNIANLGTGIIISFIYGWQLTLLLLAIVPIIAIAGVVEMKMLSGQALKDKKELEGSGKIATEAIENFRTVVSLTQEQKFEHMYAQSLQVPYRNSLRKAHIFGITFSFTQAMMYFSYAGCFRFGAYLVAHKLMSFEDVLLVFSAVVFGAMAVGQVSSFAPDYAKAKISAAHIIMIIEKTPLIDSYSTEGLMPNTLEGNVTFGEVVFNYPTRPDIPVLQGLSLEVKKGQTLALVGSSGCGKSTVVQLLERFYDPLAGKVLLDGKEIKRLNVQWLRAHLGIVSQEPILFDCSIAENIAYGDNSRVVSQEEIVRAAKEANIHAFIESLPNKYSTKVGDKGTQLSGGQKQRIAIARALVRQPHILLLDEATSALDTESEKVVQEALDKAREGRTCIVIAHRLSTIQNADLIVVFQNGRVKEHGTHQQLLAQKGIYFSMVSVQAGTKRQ
# RUN_DESCRIPTION: MDR1-MDCK P-gp transwell bidirectional transport assay
# Format: in vitro ADME
# CONDITION_SUMMARY: dog, MDCK-MDR1, MDR1-MDCK, 10 μM, 90 min
PARAMETER: Papp B→A at 90 min, 10 µM (×10⁻⁶ cm/s)
I only need the number, in ×10⁻⁶ cm/s, no unit after it.

Consider the reported Papp B→A at 90 min, 10 µM for these compounds:
COMPOUND: CC(C)(C)c1nc(-c2c(F)ccc(NS(=O)(=O)c3ccc(F)cc3C(F)(F)F)c2F)c(-c2ccnc(NCCCCC(=O)O)n2)s1
Papp B→A at 90 min, 10 µM, ×10⁻⁶ cm/s: 1.79

COMPOUND: CCCS(=O)(=O)Nc1cc(Cl)cc(-c2nc(C(C)(C)C)sc2-c2ccnc(N)n2)c1F
Papp B→A at 90 min, 10 µM, ×10⁻⁶ cm/s: 6.42

COMPOUND: CCCS(=O)(=O)Nc1cc(Cl)cc(-c2nc(C(C)(C)C)sc2-c2ccnc(NCCCCC(=O)O)n2)c1F
Papp B→A at 90 min, 10 µM, ×10⁻⁶ cm/s: 2.49

COMPOUND: CC(C)(C)c1nc(-c2cccc(NS(=O)(=O)c3c(F)cccc3F)c2F)c(-c2ccnc(CCCCC(=O)O)n2)s1
Papp B→A at 90 min, 10 µM, ×10⁻⁶ cm/s: 1.03

COMPOUND: CC(C)(C)c1nc(-c2cccc(NS(=O)(=O)c3c(F)cccc3F)c2F)c(-c2ccnc(N[C@H]3CC[C@H](C(=O)O)CC3)n2)s1
Papp B→A at 90 min, 10 µM, ×10⁻⁶ cm/s: 1.25

Now examine the next entry.
Hey, P-gp (Homo sapiens, UniProt P08183) data for CCCS(=O)(=O)Nc1ccc(F)c(C(=O)c2c[nH]c3ncc(-c4ccc(Cl)cc4)cc23)c1F [Vemurafenib, reference compound] : Papp B→A at 90 min, 10 µM came out at 3.81
